system: AKT1; conditions: Compound Concentration (nM):1000;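 also: KINOMEscan scanMAX binding as percent activity remaining versus control; lower means stronger binding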
Result Type: Percent Control (%)
# value in %; strip the unit string

Compound	Units Of Measure	Observed Value
C[C@@H](Oc1cc(-n2cnc3ccc(OC4CCN(C)CC4)cc32)sc1C(N)=O)c1ccccc1Cl [GSK579289A]	%	100
COc1cc(/C=N/Nc2ncnc3[nH]ncc23)ccc1O [GW578748X]	%	100
CC(C)COC(=O)c1ccc2c(c1)/C(=C/Nc1ccc(S(N)(=O)=O)cc1)C(=O)N2 [GW416981X]	%	100
COc1cccc(-n2ncc3c(N/N=C/c4ccncc4)ncnc32)c1 [GW784752X]	%	100
O=C(Nc1n[nH]c2nc(-c3ccc(O)cc3)c(Br)cc12)C1CC1	%	100
COc1ccc2[nH]c3c4[nH]c5ccc(OC)cc5c4c4c(c3c2c1)C(=O)NC4=O [GW296115X]	%	72
C/C(Nc1ccc(S(N)(=O)=O)cc1)=C1/C(=O)Nc2ccccc21 [GW335962X]	%	81
NS(=O)(=O)c1ccc(N/N=C2\C(=O)Nc3ccc(-c4cnco4)cc32)cc1	%	84

Now take the following compound into account.
stdin: Give the value of Percent Control reported for the following: COc1cc2ncnc(Nc3ccc4c(cnn4Cc4ccccc4)c3)c2cc1OC.Cl [GW282449A]
stdout: 100

These entries and their values trace back to paper PMC7826789.
